molecular target: MUC1 on HCT116/MUC1 cells (human, UniProt P15941 24-1255); test: flow cytometry on HCT116/MUC1 cells; antibody at 3.703704 nM
Sequence (P15941 24-1097, chain 1 of 2): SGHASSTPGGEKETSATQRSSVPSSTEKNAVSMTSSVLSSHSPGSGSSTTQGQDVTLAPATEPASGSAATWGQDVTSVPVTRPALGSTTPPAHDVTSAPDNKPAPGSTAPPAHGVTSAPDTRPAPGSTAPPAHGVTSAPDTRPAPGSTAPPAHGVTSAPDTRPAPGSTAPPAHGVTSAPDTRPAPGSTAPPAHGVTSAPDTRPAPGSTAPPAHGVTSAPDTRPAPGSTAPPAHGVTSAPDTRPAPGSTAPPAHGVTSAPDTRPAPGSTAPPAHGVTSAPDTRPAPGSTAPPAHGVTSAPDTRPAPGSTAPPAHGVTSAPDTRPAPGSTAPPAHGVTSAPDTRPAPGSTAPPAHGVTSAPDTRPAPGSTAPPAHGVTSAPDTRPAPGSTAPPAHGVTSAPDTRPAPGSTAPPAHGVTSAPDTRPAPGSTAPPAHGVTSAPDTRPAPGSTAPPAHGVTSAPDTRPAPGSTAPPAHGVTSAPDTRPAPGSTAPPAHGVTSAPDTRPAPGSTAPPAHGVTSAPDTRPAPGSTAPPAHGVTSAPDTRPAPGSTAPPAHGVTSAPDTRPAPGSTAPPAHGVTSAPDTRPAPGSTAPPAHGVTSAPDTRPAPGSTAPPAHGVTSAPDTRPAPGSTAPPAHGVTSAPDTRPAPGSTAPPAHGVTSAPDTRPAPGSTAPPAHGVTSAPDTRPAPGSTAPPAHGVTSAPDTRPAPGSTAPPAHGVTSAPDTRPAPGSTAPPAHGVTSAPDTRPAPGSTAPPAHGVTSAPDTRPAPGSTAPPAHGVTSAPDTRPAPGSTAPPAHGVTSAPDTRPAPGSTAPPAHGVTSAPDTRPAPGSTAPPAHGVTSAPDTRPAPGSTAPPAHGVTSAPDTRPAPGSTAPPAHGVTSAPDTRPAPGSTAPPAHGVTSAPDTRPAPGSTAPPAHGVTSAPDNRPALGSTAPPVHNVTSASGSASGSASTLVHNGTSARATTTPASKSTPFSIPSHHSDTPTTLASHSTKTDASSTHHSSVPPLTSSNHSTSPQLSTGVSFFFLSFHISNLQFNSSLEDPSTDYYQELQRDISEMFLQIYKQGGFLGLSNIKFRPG
Sequence (P15941 1098-1255, chain 2 of 2): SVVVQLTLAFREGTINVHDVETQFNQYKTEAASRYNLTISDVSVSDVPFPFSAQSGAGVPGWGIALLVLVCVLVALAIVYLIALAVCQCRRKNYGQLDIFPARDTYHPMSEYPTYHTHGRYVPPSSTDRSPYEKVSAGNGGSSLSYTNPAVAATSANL
endpoint.name: FACS titration signal
Number, no unit, nothing else.

Ask: # lookup: FACS titration signal of VH1 + VL3 (antibody, V domains shown) VH: QVQLVQSGAEVKKPGSSVKVSCKASGYAFSNFWMNWVRQAPGQGLEWMGQIYPGDGDTNYNGKFKGRVTITADKSTSTAYMELSSLRSEDTAVYYCARSYYRSAWFAYWGQGTLVTVSS VL: EIVLTQSPATLSLSPGERATLSCRASQSIGTSIHWYQQKPGQAPRLLIYYASESISGIPARFSGSGSGTDFTLTISSLEPEDFAVYYCQQSNNWPLTFGGGTKVEIK
Reply: 10.4

Ask: Ok, now VH2 + VL3 (antibody, V domains shown) VH: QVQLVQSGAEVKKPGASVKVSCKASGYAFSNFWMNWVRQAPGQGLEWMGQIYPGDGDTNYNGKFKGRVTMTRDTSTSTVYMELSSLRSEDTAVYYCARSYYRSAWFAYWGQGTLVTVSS VL: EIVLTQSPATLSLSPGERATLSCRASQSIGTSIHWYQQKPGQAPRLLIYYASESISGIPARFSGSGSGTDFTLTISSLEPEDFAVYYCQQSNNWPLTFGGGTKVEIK
Reply: 13.9

Ask: Same read-out for VH5 + VL2 (antibody, V domains shown) VH: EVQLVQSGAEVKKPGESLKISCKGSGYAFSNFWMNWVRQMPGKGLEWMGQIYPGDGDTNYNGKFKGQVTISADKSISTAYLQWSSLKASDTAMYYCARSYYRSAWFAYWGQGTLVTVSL VL: EIVMTQSPATLSVSPGERATLSCRASQSIGTSIHWYQQKPGQAPRLLIYYASESISGIPARFSGSGSGTEFTLTISSLQSEDFAVYYCQQSNNWPLTFGGGTKVEIK ?
Reply: 17.3

Ask: Repeat for the following binder: VH1 + VL4 (antibody, V domains shown) VH: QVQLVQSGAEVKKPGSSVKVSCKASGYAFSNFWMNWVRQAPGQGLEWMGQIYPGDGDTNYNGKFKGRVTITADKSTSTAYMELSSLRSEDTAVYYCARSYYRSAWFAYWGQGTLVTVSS VL: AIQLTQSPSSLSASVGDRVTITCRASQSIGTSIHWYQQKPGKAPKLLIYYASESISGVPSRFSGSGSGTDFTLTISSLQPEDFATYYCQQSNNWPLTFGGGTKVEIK
Reply: 16.6
